Data origin: ChEMBL document CHEMBL3576815

- system tested: Poly [ADP-ribose] polymerase tankyrase-2 (Homo sapiens, UniProt Q9H2K2)
- Sequence (Q9H2K2 whole entry, the tested form may be a part): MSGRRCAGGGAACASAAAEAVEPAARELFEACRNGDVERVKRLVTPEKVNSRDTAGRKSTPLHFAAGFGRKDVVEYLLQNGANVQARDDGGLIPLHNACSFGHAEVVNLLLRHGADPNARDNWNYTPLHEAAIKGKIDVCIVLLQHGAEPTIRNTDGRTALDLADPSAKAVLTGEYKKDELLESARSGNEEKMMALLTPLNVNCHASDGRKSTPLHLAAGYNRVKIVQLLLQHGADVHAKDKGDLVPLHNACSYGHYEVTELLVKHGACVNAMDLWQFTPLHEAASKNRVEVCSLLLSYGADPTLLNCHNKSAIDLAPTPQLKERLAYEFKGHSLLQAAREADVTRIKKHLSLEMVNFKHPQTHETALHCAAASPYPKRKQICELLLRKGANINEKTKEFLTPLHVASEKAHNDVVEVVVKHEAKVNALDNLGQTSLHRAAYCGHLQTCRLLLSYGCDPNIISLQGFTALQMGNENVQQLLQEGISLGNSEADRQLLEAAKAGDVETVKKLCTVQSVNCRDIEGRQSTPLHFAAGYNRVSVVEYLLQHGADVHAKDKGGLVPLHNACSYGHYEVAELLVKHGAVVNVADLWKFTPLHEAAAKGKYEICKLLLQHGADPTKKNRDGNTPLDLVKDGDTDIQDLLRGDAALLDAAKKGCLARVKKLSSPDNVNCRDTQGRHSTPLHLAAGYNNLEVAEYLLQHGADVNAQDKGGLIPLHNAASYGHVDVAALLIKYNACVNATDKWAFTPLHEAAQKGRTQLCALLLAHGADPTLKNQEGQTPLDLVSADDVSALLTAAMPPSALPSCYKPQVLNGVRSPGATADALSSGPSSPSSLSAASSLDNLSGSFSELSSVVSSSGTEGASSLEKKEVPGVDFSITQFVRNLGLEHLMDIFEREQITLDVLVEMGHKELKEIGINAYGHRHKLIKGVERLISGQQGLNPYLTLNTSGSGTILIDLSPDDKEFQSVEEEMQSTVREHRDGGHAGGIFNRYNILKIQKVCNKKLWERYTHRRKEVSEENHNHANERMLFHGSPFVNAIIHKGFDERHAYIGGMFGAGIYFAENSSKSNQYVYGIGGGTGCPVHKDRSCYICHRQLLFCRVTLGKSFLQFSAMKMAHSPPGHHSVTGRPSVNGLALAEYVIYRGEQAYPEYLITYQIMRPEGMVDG
- assay details: Inhibition of tankyrase 2 catalytic domain (unknown origin) expressed in Escherichia coli BL21 (DE3) assessed as reduction in ADP-ribosyl transferase activity using NAD+ by chemiluminescence detection based assay
- study conditions: read-out: IC50
pIC50: −log10 of the molar value.
Each entry below carries its reported pIC50.

compound: COc1ccc2c(c1)C(CC(=O)N[C@@H](CNC(=O)c1ccccc1N1CCC(=O)NC1=O)C(N)=O)CC2=O (some centres not stated)
pIC50: 6.33
--
compound: COc1ccc2c(c1)C(CC(=O)NCCNC(=O)c1ccccc1N1CCC(=O)NC1=O)CC2=O (configuration not stated)
pIC50: 5.10
--
compound: O=C1CCN(c2ccccc2C(=O)NCc2ccc(-n3cccn3)cc2)C(=O)N1
pIC50: 5.08
--
compound: O=C1CCN(c2ccccc2C(=O)NCCc2nc(-c3ccccn3)no2)C(=O)N1
pIC50: 5.09
--
compound: O=C1CCN(c2ccccc2C(=O)NCCc2ccc(Cl)cc2)C(=O)N1
pIC50: 5.62
--
compound: O=C1CCN(c2ccccc2C(=O)NCCc2ccc(Br)cc2)C(=O)N1
pIC50: 6.04
--
compound: COc1ccc2c(c1)C(CC(=O)N1CCN(C(=O)c3ccccc3N3CCC(=O)NC3=O)CC1)CC2=O (configuration not stated)
pIC50: 6.48

* * *

- system tested: UniProt O95271
- Sequence (O95271 whole entry): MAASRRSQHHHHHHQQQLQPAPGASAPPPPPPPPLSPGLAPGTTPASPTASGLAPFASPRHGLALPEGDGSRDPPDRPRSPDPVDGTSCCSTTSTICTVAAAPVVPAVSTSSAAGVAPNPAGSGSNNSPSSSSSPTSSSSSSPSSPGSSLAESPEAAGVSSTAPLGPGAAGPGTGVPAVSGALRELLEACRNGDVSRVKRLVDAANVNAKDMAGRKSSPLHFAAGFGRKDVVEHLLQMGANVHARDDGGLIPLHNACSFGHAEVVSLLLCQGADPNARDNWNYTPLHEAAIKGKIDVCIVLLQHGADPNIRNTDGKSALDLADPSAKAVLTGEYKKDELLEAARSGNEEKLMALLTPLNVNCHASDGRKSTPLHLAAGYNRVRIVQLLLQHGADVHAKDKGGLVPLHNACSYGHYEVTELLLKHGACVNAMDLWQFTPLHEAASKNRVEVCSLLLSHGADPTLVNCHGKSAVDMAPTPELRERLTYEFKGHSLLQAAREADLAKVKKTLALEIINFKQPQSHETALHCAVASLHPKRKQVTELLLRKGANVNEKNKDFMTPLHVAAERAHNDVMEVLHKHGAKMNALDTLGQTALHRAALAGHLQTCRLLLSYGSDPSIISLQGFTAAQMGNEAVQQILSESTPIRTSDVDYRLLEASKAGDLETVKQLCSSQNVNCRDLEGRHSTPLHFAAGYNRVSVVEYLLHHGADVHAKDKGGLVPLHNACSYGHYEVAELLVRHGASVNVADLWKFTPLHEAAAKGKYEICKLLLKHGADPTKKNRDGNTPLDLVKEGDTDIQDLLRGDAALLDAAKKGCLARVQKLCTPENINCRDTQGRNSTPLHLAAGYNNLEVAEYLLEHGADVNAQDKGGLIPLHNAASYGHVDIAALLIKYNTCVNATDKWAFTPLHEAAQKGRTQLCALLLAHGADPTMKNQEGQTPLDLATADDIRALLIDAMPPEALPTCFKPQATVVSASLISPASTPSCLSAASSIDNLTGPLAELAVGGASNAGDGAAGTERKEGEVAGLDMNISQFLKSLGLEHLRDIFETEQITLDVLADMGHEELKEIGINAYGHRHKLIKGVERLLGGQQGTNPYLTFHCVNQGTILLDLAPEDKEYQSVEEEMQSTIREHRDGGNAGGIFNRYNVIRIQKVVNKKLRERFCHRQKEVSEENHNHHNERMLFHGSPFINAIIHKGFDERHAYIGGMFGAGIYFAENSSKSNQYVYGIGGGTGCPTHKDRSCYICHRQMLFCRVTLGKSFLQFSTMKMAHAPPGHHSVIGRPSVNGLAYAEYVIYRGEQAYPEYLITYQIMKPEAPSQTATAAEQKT
- assay details: Inhibition of hexa-histidine tagged recombinant tankyrase 1 biotinylated catalytic domain (amino acids 1106 to 1325) (unknown origin) expressed in Escherichia coli BL21 (DE3) assessed as reduction in ADP-ribosyl transferase activity using NAD+ by chemiluminescence detection based assay
Mark YES only for IC50 values smaller than 600 nM; exact matches and larger values are NO.

compound: O=C1CCN(c2ccccc2C(=O)NCCc2nc(-c3ccccn3)no2)C(=O)N1
class label: YES
//
compound: O=C1CCN(c2ccccc2C(=O)NCCc2ccc(Cl)cc2)C(=O)N1
class label: YES
//
compound: O=C1CCN(c2ccccc2C(=O)NCc2ccc(-n3cccn3)cc2)C(=O)N1
class label: YES
//
compound: CN(Cc1ccc(-n2cccn2)cc1)C(=O)c1ccccc1N1CCC(=O)NC1=O
class label: NO
//
compound: O=C1CCN(c2ccccc2C(=O)NCCc2ccc(Cl)cc2Cl)C(=O)N1
class label: NO
//
compound: COc1ccc2c(c1)C(CC(=O)N[C@@H](CNC(=O)c1ccccc1N1CCC(=O)NC1=O)C(N)=O)CC2=O (stereo not given in full)
class label: YES
//
compound: O=C1CCN(c2ccccc2C(=O)NCCc2ccc(Br)cc2)C(=O)N1
class label: YES
//
compound: COc1ccc2c(c1)C(CC(=O)NCCNC(=O)c1ccccc1N1CCC(=O)NC1=O)CC2=O (stereo not given)
class label: YES
//
compound: COc1ccc2c(c1)C(CC(=O)N1CCN(C(=O)c3ccccc3N3CCC(=O)NC3=O)CC1)CC2=O (stereo not given)
class label: YES
//
compound: O=C1CCN(c2ccccc2C(=O)NCCc2ccccc2)C(=O)N1
class label: NO

* * *

// endpoint IC50 / system Protein mono-ADP-ribosyltransferase PARP10 (Homo sapiens)
quantity kind: IC50

input smiles: O=C1CCN(c2ccccc2C(=O)NCCc2ccc(Cl)cc2)C(=O)N1
endpoint result: > 50 µM

input smiles: O=C1CCN(c2ccccc2C(=O)NCCc2ccc(Cl)cc2Cl)C(=O)N1
endpoint result: > 50 µM

input smiles: O=C1CCN(c2ccccc2C(=O)NCCc2nc(-c3ccccn3)no2)C(=O)N1
endpoint result: 2.2 µM
